test: Cytotoxicity against human HepG2 cells assessed as reduction in cell viability incubated for 48 hrs by MTS assay; format: toxicity, cell-based
OBSERVED PROPERTY: EC50 at 48 h

• OC1CC2(CCNCC2)Oc2c1ccc1ccccc21 (stereo not given) = > 20 µM
• c1ccc(CCCN2CCC3(CCc4ccc5ccccc5c4O3)CC2)cc1 = > 20 µM
• Fc1ccc(CCN2CCC3(CCc4ccc5ccccc5c4O3)CC2)cc1F = > 20 µM
• O[C@@H](CN1CCC2(CC1)C[C@H](O)c1ccc3ccccc3c1O2)c1ccc(F)c(F)c1 = > 20 µM

Turning to the following compound.
Sure, the documented EC50 at 48 h for "CCN1CCC2(CCc3ccc4ccccc4c3O2)CC1" is > 20 µM
